Test: Pharmacokinetic parameters (Tmax, AUClast, Cmax) of DD217 in phase II trial patients
Format: in vivo, human (patients undergoing knee replacement surgery)
Settings: human, plasma, oral, 60 mg; CYP2C9 *2/*3, PM (n = 2); mean ± SD; read-out: Tmax
experimentalEndpoint: Tmax (h)
Number only, in h; omit the unit.

// Input: `CC(=N)N(C)c1ccc(C(=O)Nc2ccc(C)cc2C(=O)Nc2ccc(Cl)cn2)cc1.Cl` . Output its Tmax only. 2.5

###

Test: Pharmacokinetic parameters (Tmax, AUClast, Cmax) of DD217 in phase II trial patients
Format: in vivo, human (patients undergoing knee replacement surgery)
Conditions: human, plasma, im, 40 mg; CYP3A *1/*22, *1/*3, IM (n = 4); mean ± SD; read-out: AUClast
experimentalEndpoint: AUC(0-t) (ng·h/mL)
Number only, in ng·h/mL; omit the unit.

// Input: CC(=N)N(C)c1ccc(C(=O)Nc2ccc(C)cc2C(=O)Nc2ccc(Cl)cn2)cc1.Cl [DD217] . Output its AUC(0-t) only. 49

###

Assay: Pharmacokinetic parameters (Tmax, AUClast, Cmax) of DD217 in phase II trial patients
Format: in vivo, human (patients undergoing knee replacement surgery)
Settings: human, plasma, oral, 40 mg/day; ABCB1 rs1128503 T>C, T/T (n 2); read-out: Cmax (SD)
experimentalEndpoint: Cmax (ng/mL)
Number only, in ng/mL; omit the unit.

// Input: CC(=N)N(C)c1ccc(C(=O)Nc2ccc(C)cc2C(=O)Nc2ccc(Cl)cn2)cc1.Cl [DD217] . Output its Cmax only. 8.35

###

Experiment: Pharmacokinetic parameters (Tmax, AUClast, Cmax) of DD217 in phase II trial patients
Type: in vivo, human (patients undergoing knee replacement surgery)
Conditions: human, plasma, oral, 60 mg; CYP2C8 rs11572080 C/T (n 2); read-out: AUClast (SD)
experimentalEndpoint: AUC(0-t) (ng·h/mL)
Number only, in ng·h/mL; omit the unit.

// Input: `CC(=N)N(C)c1ccc(C(=O)Nc2ccc(C)cc2C(=O)Nc2ccc(Cl)cn2)cc1.Cl` . Output its AUC(0-t) only. 62.5

###

Assay: Pharmacokinetic parameters (Tmax, AUClast, Cmax) of DD217 in phase II trial patients
Assay type: in vivo, human (patients undergoing knee replacement surgery)
Conditions: human, plasma, oral, 40 mg/day; ABCB1 rs4148738 C>T, T/C (n 6); read-out: AUClast (SD)
experimentalEndpoint: AUC(0-t) (ng·h/mL)
Number only, in ng·h/mL; omit the unit.

// Input: CC(=N)N(C)c1ccc(C(=O)Nc2ccc(C)cc2C(=O)Nc2ccc(Cl)cn2)cc1.Cl [DD217] . Output its AUC(0-t) only. 46.4

###

Assay: Pharmacokinetic parameters (Tmax, AUClast, Cmax) of DD217 in phase II trial patients
Format: in vivo, human (patients undergoing knee replacement surgery)
Conditions: human, plasma, oral, 60 mg/day; ABCB1 rs4148738 T/T (n 4); read-out: Tmax (SD)
experimentalEndpoint: Tmax (h)
Number only, in h; omit the unit.

// Input: `CC(=N)N(C)c1ccc(C(=O)Nc2ccc(C)cc2C(=O)Nc2ccc(Cl)cn2)cc1.Cl` . Output its Tmax only. 2

###

Test: Pharmacokinetic parameters (Tmax, AUClast, Cmax) of DD217 in phase II trial patients
Type: in vivo, human (patients undergoing knee replacement surgery)
Conditions: human, plasma, oral, 40 mg/day; ABCB1 rs1128503 T>C, T/T (n 2); read-out: AUClast (SD)
experimentalEndpoint: AUC(0-t)

// Input: CC(=N)N(C)c1ccc(C(=O)Nc2ccc(C)cc2C(=O)Nc2ccc(Cl)cn2)cc1.Cl [DD217] . Output its AUC(0-t) only. 60.9 ng·h/mL

###

Test: Pharmacokinetic parameters (Tmax, AUClast, Cmax) of DD217 in phase II trial patients
Type: in vivo, human (patients undergoing knee replacement surgery)
Conditions: human, plasma, oral, 40 mg; CYP2C8 rs11572080 C/C (n 13); read-out: Tmax (h, SD)
experimentalEndpoint: Tmax (h)
Number only, in h; omit the unit.

// Input: `CC(=N)N(C)c1ccc(C(=O)Nc2ccc(C)cc2C(=O)Nc2ccc(Cl)cn2)cc1.Cl` . Output its Tmax only. 8.92

###

Experiment: Pharmacokinetic parameters (Tmax, AUClast, Cmax) of DD217 in phase II trial patients
Format: in vivo, human (patients undergoing knee replacement surgery)
Conditions: human, plasma, im, 60 mg; CYP2C9 *1/*2, *1/*3, IM (n = 5); mean ± SD; read-out: AUClast
experimentalEndpoint: AUC(0-t) (ng·h/mL)
Number only, in ng·h/mL; omit the unit.

// Input: CC(=N)N(C)c1ccc(C(=O)Nc2ccc(C)cc2C(=O)Nc2ccc(Cl)cn2)cc1.Cl [DD217] . Output its AUC(0-t) only. 89.8

###

Assay: Pharmacokinetic parameters (Tmax, AUClast, Cmax) of DD217 in phase II trial patients
Format: in vivo, human (patients undergoing knee replacement surgery)
Conditions: human, plasma, oral, 60 mg; CYP3A *1/*1, EM (n = 16); mean ± SD; read-out: Cmax
experimentalEndpoint: Cmax (ng/mL)
Number only, in ng/mL; omit the unit.

// Input: CC(=N)N(C)c1ccc(C(=O)Nc2ccc(C)cc2C(=O)Nc2ccc(Cl)cn2)cc1.Cl [DD217] . Output its Cmax only. 5.32

###

Experiment: Pharmacokinetic parameters (Tmax, AUClast, Cmax) of DD217 in phase II trial patients
Assay type: in vivo, human (patients undergoing knee replacement surgery)
Settings: human, plasma, oral, 60 mg/day; ABCB1 rs1128503 T/T (n 4); read-out: Cmax (SD)
Experimental: The design, eligibility criteria, and outcomes of the phase II clinical trial evaluating the safety and tolerability of DD217 (NCT05189002, ClinicalTrials.gov) have been described previously. […] To characterize the pharmacokinetic profile of DD217 in our study, three parameters were assessed: Cmax, Tmax, and AUClast.
experimentalEndpoint: Cmax (ng/mL)
Number only, in ng/mL; omit the unit.

// Input: `CC(=N)N(C)c1ccc(C(=O)Nc2ccc(C)cc2C(=O)Nc2ccc(Cl)cn2)cc1.Cl` . Output its Cmax only. 1.49

###

Assay: Pharmacokinetic parameters (Tmax, AUClast, Cmax) of DD217 in phase II trial patients
Format: in vivo, human (patients undergoing knee replacement surgery)
Conditions: human, plasma, oral, 40 mg/day; ABCB1 rs1045642 T>C, T/C (n 7); read-out: Tmax (SD)
experimentalEndpoint: Tmax

// Input: `CC(=N)N(C)c1ccc(C(=O)Nc2ccc(C)cc2C(=O)Nc2ccc(Cl)cn2)cc1.Cl` . Output its Tmax only. 6 h

###

Experiment: Pharmacokinetic parameters (Tmax, AUClast, Cmax) of DD217 in phase II trial patients
Type: in vivo, human (patients undergoing knee replacement surgery)
Conditions: human, plasma, oral, 40 mg/day; ABCB1 rs1045642 T>C, T/C (n 7); read-out: AUClast (SD)
experimentalEndpoint: AUC(0-t) (ng·h/mL)
Number only, in ng·h/mL; omit the unit.

// Input: `CC(=N)N(C)c1ccc(C(=O)Nc2ccc(C)cc2C(=O)Nc2ccc(Cl)cn2)cc1.Cl` . Output its AUC(0-t) only. 63.6

###

Experiment: Pharmacokinetic parameters (Tmax, AUClast, Cmax) of DD217 in phase II trial patients
Assay type: in vivo, human (patients undergoing knee replacement surgery)
Conditions: human, plasma, im, 60 mg; CYP2C9 *1/*2, *1/*3, IM (n = 5); mean ± SD; read-out: Cmax
Procedure: The design, eligibility criteria, and outcomes of the phase II clinical trial evaluating the safety and tolerability of DD217 (NCT05189002, ClinicalTrials.gov) have been described previously. […] To characterize the pharmacokinetic profile of DD217 in our study, three parameters were assessed: Cmax, Tmax, and AUClast.
experimentalEndpoint: Cmax (ng/mL)
Number only, in ng/mL; omit the unit.

// Input: `CC(=N)N(C)c1ccc(C(=O)Nc2ccc(C)cc2C(=O)Nc2ccc(Cl)cn2)cc1.Cl` . Output its Cmax only. 9.24

###

Test: Pharmacokinetic parameters (Tmax, AUClast, Cmax) of DD217 in phase II trial patients
Type: in vivo, human (patients undergoing knee replacement surgery)
Conditions: human, plasma, oral, 40 mg/day; ABCB1 rs4148738 C>T, T/C (n 6); read-out: Tmax (SD)
experimentalEndpoint: Tmax (h)
Number only, in h; omit the unit.

// Input: CC(=N)N(C)c1ccc(C(=O)Nc2ccc(C)cc2C(=O)Nc2ccc(Cl)cn2)cc1.Cl [DD217] . Output its Tmax only. 9.5

###

Assay: Pharmacokinetic parameters (Tmax, AUClast, Cmax) of DD217 in phase II trial patients
Assay type: in vivo, human (patients undergoing knee replacement surgery)
Settings: human, plasma, oral, 40 mg; CYP2C19 *1/*1, NM (n = 6); mean ± SD; read-out: Cmax
experimentalEndpoint: Cmax (ng/mL)
Number only, in ng/mL; omit the unit.

// Input: `CC(=N)N(C)c1ccc(C(=O)Nc2ccc(C)cc2C(=O)Nc2ccc(Cl)cn2)cc1.Cl` . Output its Cmax only. 5.25

Origin of measurements: paper PMC12655527
